// values below are reported viability at 48 h, 25 µM
Test: in vitro
Settings: human, hek293t cells
Number only, in %; omit the unit.

Previously resolved entries follow.
query: viability at 48 h, 25 µM for N#CC1=C(N2CCOCC2)SC(c2cccc([N+](=O)[O-])c2)NC1=O (stereo not shown) [9-L19] ?
result: 129

query: viability at 48 h, 25 µM for N#CC(=Cc1ccc(OC(F)F)cc1)C(=O)Nc1nccs1 [8-F14] ?
result: 113

query: viability at 48 h, 25 µM for C=CC(=O)Nc1ncccn1 [1-M12, N-(pyrimidin-2-yl)prop-2-enamide] ?
result: 71.5

Continuing:
query: viability at 48 h, 25 µM for C=CC(=O)N1CCNC(=O)C1Cc1nc2ccccc2o1 (stereo not shown) [1-B20] ?
result: 82.9

Cited source: paper PMC11995724
